Values from the nanobody polyreactivity screen of Harvey et al. (2022)

assay: yeast display, Sf9 membrane polyspecificity reagent, FACS + sequencing; frameworks hold sequencing errors
quantityName: polyreactivity (PSR sort gate)

Solved entries:
- QVQLVESGGCLVQSGGSLRLSCAASGSTFRGYAMGWYRQAPGKEREFVAAISKGGASTYYADSVKGRFTISRDNAMNTVYLQMNSLKPEDTAVYYCAKGAYRRAYGTYYYWGQGTQVTVSS: high polyreactivity
- QVQLQESGGGLVQAGGCLSCTASGTIFGQGDMGWYRPAPGKERELVATINDGASTYYADSVKGRFTISRDKAKNTVYLQKNSLNQDDTAVYYCAVFTDITTYFGYWGQGTQVTVSS: low polyreactivity
- QVQLVESGGGLVQAGGSLRLSCAASGIIFGGNVMGWYRQAPGKERELVAAISGGGGRTHYADSVKGRFTISRDNAKNTVYLQMNSLKPEDTAVYYCAVVTRYRYDYWGQGTQVTVSS: high polyreactivity
- QVQLVESGGGLVQAGGSHRLSCAASGRTFQENGMGWYRQAPGKERELVATISQRGTSTYYADSVKGRFTISRDNAKNTVYLQMNSLKPEDTAVYYCARRRVYRWYTGDYWGQGTQVTVSS: low polyreactivity

# next sequence below
Q: Given QVQLVESGGGLVQAGGSLRLSCAASGSIFSYNAMGWNRQAPGKESELVAAISWSGGRTYYADSVKGRFTISRDNAKNTVYLQMNSLKPEDTAVYYCNAQYRLYSEFNYWGQGTQVTVSS , respond with its polyreactivity (PSR sort gate).
Result: high polyreactivity
